- runDescription: inhibition of 3D7 malaria parasite growth – strain 3D7 (AID 2306);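 also: 0% = DMSO wells and 100% = chloroquine plus artemisinin control wells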
- studyConditions: P. falciparum 3D7 erythrocytic growth, LDH absorbance, 72 h; at 2 µM; hits give high values
outcomeMeasure: growth inhibition (%)
Reply numerically in %, unit not repeated.

Name the recorded growth inhibition of the molecule listed here: CC1CCN(c2nc(C(=O)Nc3cccc4c3CCCC4)c(C(C)C)s2)CC1
96

Name the recorded growth inhibition of the molecule listed here: CCCN(CCCCNC(=O)c1ccc(-c2cccnc2)cc1)C1CCc2c(O)cccc2C1 (centres undefined)
87

Name the recorded growth inhibition of the molecule listed here: CN1CCC(c2ccc(NC(=O)c3ccc(-c4cccc(C(F)(F)F)c4)o3)cc2)CC1
86

Name the recorded growth inhibition of the molecule listed here: Cc1ccn2cc(-c3ccc(NC(=O)c4ccc(Br)o4)cc3)nc2c1
98

Name the recorded growth inhibition of the molecule listed here: COc1ccccc1NC(=O)Nc1cccc(-c2cccc(-c3nc4c(C)cccc4[nH]3)c2)c1
101

Name the recorded growth inhibition of the molecule listed here: CCCN(CCC)CCCCC(C)Nc1c2ccc(Cl)cc2nc2ccc(OC)cc12 (centres undefined)
102

Name the recorded growth inhibition of the molecule listed here: O=S(=O)(c1ccc(Cl)cc1Cl)N1CCCCC(c2ccc(C(F)(F)F)cc2)=N1
100

Name the recorded growth inhibition of the molecule listed here: NC(N)=NN=CC(=O)Nc1cccc(C(F)(F)F)c1
99

Name the recorded growth inhibition of the molecule listed here: Cc1ccc(CN2CCCN(Cc3cccc(NC(=O)c4cc5ccccc5s4)c3)CC2)cc1C
92

Name the recorded growth inhibition of the molecule listed here: CCN1CCC(N(Cc2ccc(-c3ccc(C(F)(F)F)cc3)cc2)C(=O)Cn2nc(C)c(=O)cc2SCc2ccc(F)cc2)CC1
94

Name the recorded growth inhibition of the molecule listed here: COc1c(C(=O)NC2CCN(Cc3ccccc3)C2)cnc2ccccc12 (centres undefined)
86

Name the recorded growth inhibition of the molecule listed here: Cc1ccc(Nc2nnc(SCC(=O)Nc3ccc(CN4CCCC4)cc3)s2)cc1
91

Name the recorded growth inhibition of the molecule listed here: c1cncc(CCNCc2cccc(-c3ccc(-c4nc5ccccc5[nH]4)s3)c2)c1
100

Name the recorded growth inhibition of the molecule listed here: Oc1ccc(Cl)cc1CN1CCC2(CCCN(CC3CCC3)C2)C1 (centres undefined)
100

====

- targetEntity: L-lactate dehydrogenase (Plasmodium falciparum (isolate CDC / Honduras)) (UniProt Q27743)
- Sequence (Q27743 whole entry, looked up): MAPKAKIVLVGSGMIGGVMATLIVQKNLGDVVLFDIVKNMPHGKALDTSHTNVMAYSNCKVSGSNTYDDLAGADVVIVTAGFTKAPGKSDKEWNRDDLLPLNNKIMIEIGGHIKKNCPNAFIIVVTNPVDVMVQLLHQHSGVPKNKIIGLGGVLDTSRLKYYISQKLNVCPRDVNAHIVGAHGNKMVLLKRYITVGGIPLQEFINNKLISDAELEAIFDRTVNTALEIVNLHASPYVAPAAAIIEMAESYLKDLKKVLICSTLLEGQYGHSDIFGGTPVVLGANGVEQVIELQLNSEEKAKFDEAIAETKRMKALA
- runDescription: PfLDH activity inhibition – cell lysate, 3D7 strain, counter-screen for P. falciparum growth inhibition project (AID 2304);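 also: 0% = vehicle and 100% = reference inhibitor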
- studyConditions: P. falciparum 3D7 crude extract, LDH APAD/NBT absorbance; at 2 µM; hits give high values
outcomeMeasure: inhibition (%)
Reply numerically in %, unit not repeated.

Name the recorded inhibition of the compound listed here: CC(C)(C)OC(=O)[C@H](CC(N)=O)NC(=O)c1ccc(-c2ccc(-c3nc4ccc(C(F)(F)F)cc4[nH]3)s2)cc1
-2

Name the recorded inhibition of the compound listed here: COc1cc(Nc2nccc(N3CCC(NC(=O)c4cccc(C#N)c4)C3)n2)cc(OC)c1OC (stereo not given)
-8

Name the recorded inhibition of the compound listed here: OCCN1CCN(c2ccc(Nc3ccnc4cc5ccccc5cc34)cc2)CC1
-1

Name the recorded inhibition of the compound listed here: Cc1cc(NC(=O)c2coc3cc(F)c(N4C[C@@H](C)N(C)[C@@H](C)C4)cc23)cnc1-c1ccc(C#N)cc1
-3

Name the recorded inhibition of the compound listed here: COc1cc(CCN=C(N)/C=C/c2ccc(Cl)cc2)ccc1Cl
3

====

- targetEntity: Calcium-dependent protein kinase 4 (Plasmodium falciparum (isolate 3D7)) (UniProt Q8IBS5)
- Sequence (Q8IBS5 whole entry, looked up): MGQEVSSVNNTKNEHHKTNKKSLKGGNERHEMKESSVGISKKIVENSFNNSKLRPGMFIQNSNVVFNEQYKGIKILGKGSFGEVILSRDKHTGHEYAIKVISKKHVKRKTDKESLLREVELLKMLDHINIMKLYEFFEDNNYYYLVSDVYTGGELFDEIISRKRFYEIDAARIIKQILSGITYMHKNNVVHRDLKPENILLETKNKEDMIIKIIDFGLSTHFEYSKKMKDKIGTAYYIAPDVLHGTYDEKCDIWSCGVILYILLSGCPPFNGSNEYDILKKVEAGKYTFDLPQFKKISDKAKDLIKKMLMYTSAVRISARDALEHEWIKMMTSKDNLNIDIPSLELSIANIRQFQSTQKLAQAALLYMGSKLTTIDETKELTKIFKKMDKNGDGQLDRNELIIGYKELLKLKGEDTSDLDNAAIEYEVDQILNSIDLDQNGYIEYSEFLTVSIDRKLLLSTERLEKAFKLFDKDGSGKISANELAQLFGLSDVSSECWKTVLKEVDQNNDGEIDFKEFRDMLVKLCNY
- runDescription: PfCDPK4 kinase inhibitors, biochemical, TCAMS library (AID 1159588)
- studyConditions: recombinant PfCDPK4, Kinase-Glo ATP depletion luminescence
Entries with a potency or affinity are not part of this list. Activity calls are given as the source filed them. No cut-off is given here; in the data, nearly all actives have IC50 up to about 0.91 µM.
outcomeMeasure: outcome

Consider the worked cases shown below.
> print(dat)
                                   compound  endpointvalue
1  FC(F)(F)c1cccc(Nc2nc3ccccc3nc2Nc2cccc(C(F)(F)F)c2)c1       inactive
2  Cc1noc(-c2ccc3c(c2)CCN(CCC2CCC(NC(=O)c4cc5ccccc5[nH]4)CC2)CC3)n1 (stereo not given)       inactive
3  O=C(Nc1cccc(-c2cc(-c3c(Cl)cccc3Cl)no2)c1)c1cnc2ccccc2c1       inactive
4  Cc1ccc2nc(C)n(C3CCN(C(=O)Cc4ccc(F)c(F)c4)CC3)c2c1       inactive
5  COC(=O)c1ccc(NC(=O)Nc2ccc(Cn3ncc(N4CCCNCC4)c(Cl)c3=O)cc2)cc1       inactive
6  O=C(c1ccccc1N=Nc1c(-c2ccccc2)[nH]n(-c2ccccc2)c1=O)N1CCOCC1       inactive
7  CCC(CC(C)C(=O)O)=C(c1ccccc1)c1ccccc1 (stereo not given)       inactive
8  NC(=O)c1cc2nc(NC3CCC3)nc(Nc3cccc4[nH]ncc34)c2[nH]1       inactive

Name the recorded outcome of the compound listed here: COc1ccc(CCn2c(=N)c(C(=O)NCc3cccnc3)cc3c(=O)n4ccccc4nc32)cc1
inactive

Name the recorded outcome of the compound listed here: O=c1ccc2ccc(F)c3c2n1CC3CN1CCC(NCc2cccc(-c3cccs3)c2)CC1 (stereo not given)
inactive

====

- targetEntity: L-lactate dehydrogenase (Plasmodium falciparum (isolate CDC / Honduras)) (UniProt Q27743)
- runDescription: PfLDH activity inhibition – cell lysate, 3D7 strain, counter-screen for P. falciparum growth inhibition project (AID 2304);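 also: 0% = vehicle and 100% = reference inhibitor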
- studyConditions: P. falciparum 3D7 crude extract, LDH APAD/NBT absorbance; at 2 µM; hits give high values
Activity calls are given as the source filed them. How the calls were made is not given here.
outcomeMeasure: inhibition

Name the recorded inhibition of the compound listed here: Cc1cc(Nc2c(C(N)=O)cnc3cc(-c4ccoc4)ccc23)ccc1N1CCN(C)CC1
1% (inactive)

Name the recorded inhibition of the compound listed here: O=C(CC(=O)C(F)(F)F)c1ccc2c(c1)OCO2
0% (inactive)

Name the recorded inhibition of the compound listed here: Cc1cc(C(=O)Nc2ccc3c(c2)CCN3C2CCN(Cc3ccc(F)cc3Cl)C2)no1 (stereo not given)
1% (inactive)

Name the recorded inhibition of the compound listed here: O=C(Nc1cccc(-c2cccc(-c3nc4ccc(C(F)(F)F)cc4[nH]3)c2)c1)c1cccnc1Cl
1% (inactive)

Name the recorded inhibition of the compound listed here: CCCCCNc1nc(Nc2ccccc2C)nc2ccccc12
-7% (inactive)

====

- runDescription: antimalarial activity against Dd2 strain (AID 2302);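 also: 0% = DMSO untreated growth and 100% = chloroquine plus artemisinin killed control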
- studyConditions: P. falciparum Dd2 in RBCs, LDH growth readout, 72 h; at 2 µM; hits give high values
I'd appreciate it if you could supply growth inhibition values for the items below.
Reply numerically in %, unit not repeated.

Name the recorded growth inhibition of the compound listed here: Cc1cc(Cl)ccc1N(Cc1ccccc1)c1ccnc(Cl)n1
98

Name the recorded growth inhibition of the compound listed here: COC(=O)Cn1c2ccccc2c2c(N)c(C(=O)OC)c(C)nc21
1

Name the recorded growth inhibition of the compound listed here: Nc1c2ccccc2nc2ccc(-c3ccccc3)cc12
99

Name the recorded growth inhibition of the compound listed here: Cc1cnc(C(=O)Nc2cccc(-c3csc(-c4nc5ccccc5[nH]4)c3)c2)cn1
80

Name the recorded growth inhibition of the compound listed here: OCCN1CCN(c2ccc(Nc3ccnc4cc5ccccc5cc34)cc2)CC1
100

Name the recorded growth inhibition of the compound listed here: COc1ccc(-c2ccc(NC(=O)c3cccc(C#N)c3)cc2)cc1CN1CCN(C)CC1
59

Name the recorded growth inhibition of the compound listed here: CC(C)[C@@H](NC(=O)NC1CCC(CCN2[C@@H]3CC[C@H]2CC(OC(=O)C(CO)c2ccccc2)C3)CC1)C(O)(c1ccccc1)c1ccccc1 (stereo not given in full)
56

Name the recorded growth inhibition of the compound listed here: COc1ccc(-c2cccc(NC(=O)c3cccc(C#N)c3)c2)cc1CN(C)CCO
30

Name the recorded growth inhibition of the compound listed here: COc1cc(Nc2nccn3c(-c4ccsc4)cnc23)cc(OC)c1OC
78

Name the recorded growth inhibition of the compound listed here: CCN(CC)CCN(Cc1ccc(-c2ccc(C(F)(F)F)cc2)cc1)C(=O)Cn1cc(Cc2cnn(C)c2)c(=O)nc1/C=C/c1ccc(F)cc1
91

Name the recorded growth inhibition of the compound listed here: Cc1cc(N[C@@H](Cc2ccccc2)C(=O)NCc2cccc(F)c2)nc(NCc2ccccc2C)n1
75

Name the recorded growth inhibition of the compound listed here: COc1ccc2c(NN=Cc3ccccc3Cl)ccnc2c1
46

Name the recorded growth inhibition of the compound listed here: O=C(Nc1ccc(Cl)c(Cl)c1)C1CCC(=O)N1[C@@H](Cc1ccccc1)C(=O)NCCc1ccc(Cl)cc1 (stereo not given in full)
-9

Name the recorded growth inhibition of the compound listed here: COCn1ncc2cc(-c3cccc(NC(=O)c4csc(NC(C)=O)n4)c3)ccc21
68

Name the recorded growth inhibition of the compound listed here: Cc1c(Cc2ccccc2Br)cnc2nc(N)nc(N)c12
97

Name the recorded growth inhibition of the compound listed here: N#CNC(=NCCCSc1csc(N=C(N)N)n1)NCCCCCCCCN=C(NC#N)NCCSCc1csc(N=C(N)N)n1
24

Name the recorded growth inhibition of the compound listed here: CC(CC(=O)NCC1(c2ccc(F)cc2Cl)CCOCC1)C(=O)c1ccc(Cl)cc1 (stereo not given)
91

Name the recorded growth inhibition of the compound listed here: CN1CCCN(c2ccnc3cc4c(cc23)N(C(=O)c2ccc(Cl)c(Cl)c2)CC4)CC1
73

Name the recorded growth inhibition of the compound listed here: COc1ccc(Br)cc1/C=C/C(=O)Nc1ccc2c(c1)CCCN(C)C2
10

Name the recorded growth inhibition of the compound listed here: O=C(c1cc(C(=O)Nc2ccccc2)c(=O)n(-c2ccccc2)c1)c1cc(Cl)ccc1O
95

Name the recorded growth inhibition of the compound listed here: Cc1cc(C(F)(F)F)n2nc(C(=O)N(C)Cc3cncn3Cc3ccc(F)cc3)cc2n1
96

Name the recorded growth inhibition of the compound listed here: CCCNCc1ccc(-c2ccc(CN(CC3CCCO3)C(=O)COc3ccccc3Cl)cc2)nc1 (stereo not given)
11

Name the recorded growth inhibition of the compound listed here: CC(C)NCc1cccc(-c2ccc(NC(=O)c3cccc(C#N)c3)cc2)c1
95

Name the recorded growth inhibition of the compound listed here: CC(CN1CCN(C)CC1)C(=O)Nc1ccc(-c2csc(-c3nc4ccccc4[nH]3)c2)cc1 (stereo not given)
26

Name the recorded growth inhibition of the compound listed here: O=C(Nc1ccc(-c2cncc(NCCCN3CCCC3)c2)cc1)c1ccccc1
49
